Give measured kon for each item. Keep answers brief.
# tested target: T1, Mouse-Fc-tagged SARS-CoV2 S1-RBD (Sino Biologicals) recombinant protein (SARS-CoV-2, UniProt P0DTC2 319-541)
# T1 construct: domain: S1-RBD
# protocol summary: SPR, S1-RBD-mFc captured via anti-mouse-Fc antibody, 1:1 model

binder P043.A.00017.E07 (protein sample ID 449) (antibody, V domains shown) VH: QSVEESGGRLVTPGTPLTLTCTVSGFSLSSYAMSWVRQAPGKGLEWIGIISSSGSTYYASWAKGRFTISKTSTTVDLKITSPTTEDTATYFCARAMYPGYSTGVYNIWGPGTLVTVSL VL: AIQMTQSPSSLAASVGDTVTITCKASEDIGYELNWYQQKLGIAPKLLIYGANTLESGVPSRFSGSGSETDYTLTISSVQAEDAGIYYCQQGYNTPNTFGAGTKVEIK , kon observed: 780000 M⁻¹ s⁻¹

Given item P043.A.00018.C02 (protein sample ID 450) (antibody, V domains shown) VH: QSVEESGGRLVTPGTPLTLTCTVSGFSLSSYAMSWVRQAPGKGLEWIGIINSGRSTYYASWAKGRFTISKTSTTVDLKITSPTTEDTATYFCARDATSIGYYRYYGMDPWGPGTLVTVSS VL: AIQMTQSPSSLAASVGDTVTITCKASEDIGYGLNWYQQKLGIAPKLLIYGANTLESGVPSRFSGSGSETDYTLTISSVQAEDAGIYYCQQGYSTPLTFGAGTKVEIK , the value recorded as its kon is 714000 M⁻¹ s⁻¹

Just so you know, measured kon for P043.A.00023.A08 (protein sample ID 446) (antibody, V domains shown) VH: QSVEESGGRLVTPGTPLTLTCTVSGFSLSKYAMSWVRQAPGKGLEWIGIISSGGSTYYASWAKGRFTISKTSSTTVDLKITSPTTEDTATYFCARAGYPGYSPHYFNIWGPGTLVTVSL VL: AIQMTQSPSSLAASVGDTVTITCKASEDIGYELNWYQQKLGIAPKLLIYGANTLESGVPSRFTGSGSETDYTLTISSVQAEDAGIYYCQQGYSTPPTFGAGTKVEIK came out at 2.12e+06 M⁻¹ s⁻¹

Per the records, this binder ( P043.A.00023.E05 (antibody, V domains shown, also called 443; protein sample ID 443) VH: QSLEESGGRLVTPGTPLTLTCTVSGFSLSSYAMSWVRQAPGKGLEWIGIISSSGSTYYASWAKGRFTISKTSTTVDLKITSPTTEDTATYFCARDASSRGYYYYYGMDPWGPGTLVTVSS VL: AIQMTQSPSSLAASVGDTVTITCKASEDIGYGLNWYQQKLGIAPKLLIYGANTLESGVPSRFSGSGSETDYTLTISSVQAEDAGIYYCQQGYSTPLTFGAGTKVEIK ) has kon equal to 982000 M⁻¹ s⁻¹

The reported value for P043.A.00020.D06 (protein sample ID 444) (antibody, V domains shown) VH: QSVEESGGRLVTPGTPLTLTCTVSGFSLSSYAMNWVRQAPGKGLEWIGIISSSGSTYYASWAKGRFTISKTSTTVDLKITSPTTEDTATYFCARVGAGYAGYGYDNYYGMDPWGPGTLVTVSS VL: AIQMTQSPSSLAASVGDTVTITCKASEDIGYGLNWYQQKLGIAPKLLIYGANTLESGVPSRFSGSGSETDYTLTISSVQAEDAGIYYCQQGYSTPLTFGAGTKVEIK in terms of kon is 236000 M⁻¹ s⁻¹

Recorded result, P043.A.00047.H08 (protein sample ID 447) (antibody, V domains shown, also called antibody with the Protein sample ID 447) VH: QSLEESGGDLVKPGASLTLTCTASGFSFSSDGMCWVRQAPGKGLEWIACIAAGSSGSTYYATWAQGRFTISKSSSTTVTLQMTSLTAADTATYFCAGEDYTGNNYYALWGPGTLVTVSS VL: AIDMTQTPSPVSAVVGDTVTINCQASENIYSFLAWYQQKPGQPPKLLIYFASKLASGVPSRFKGSGSGTQFTLTISDVHSDDAAIYYCQQTGTYSDADNTFGGGTEVVVK , kon: 296000 M⁻¹ s⁻¹

The reported value for P043.A.00017.E04 (antibody, V domains shown) VH: QSVEESGGRLVTPGTPLTLTCTVSGFSLNNYAMNWVRQAPGKGLEWIGIISSSGNTYYANWAKGRFTISKTSTTVDLKITSPTTEDTATYFCARDSYPGYSPYYGMDPWGPGTLVTVSS VL: AIQMTQSPSSLAASVGDTVTITCKASEDIAYGLNWYQQKLGITPKLLIYGANTLESGVPSRFSGSGSETHYTLTISSVQAEDAGIYYCQQGYNTPPTFGAGTKVEIK in terms of kon is 445000 M⁻¹ s⁻¹

GET /value?item= P043.A.00024.C11 (protein sample ID 451) (antibody, V domains shown) VH: QSVEESGGRLVTPGTPLTLTCTVSGFSLSSYAMSWVRQAPGKGLEWIGIISSSGTTYYASWAKGPFTISKTSTTVDLKITSPTTEDTATYFCARGGAGYGYAHYYGMDPWGPGTLVTVSS VL: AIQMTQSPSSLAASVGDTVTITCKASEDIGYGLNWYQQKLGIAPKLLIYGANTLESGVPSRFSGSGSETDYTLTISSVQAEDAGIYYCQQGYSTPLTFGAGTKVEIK &field=kon returns 398000 M⁻¹ s⁻¹
